- EXPERIMENT_SUMMARY: yeast display, Sf9 membrane polyspecificity reagent, FACS + sequencing; frameworks hold sequencing errors
PARAMETER: polyreactivity (PSR sort gate)

INSERT INTO results (seq_text, result) VALUES
  ('QVQLVESGGGLVQEGGSLRLSCAASGLTFTGNAMGGYRQAPGKEREFVAAIRWSAGSTYYADSVKGRFTISRDNAKNTVYLQMNSLKPEDTAVYYCYAALIVSGHNPNDYWGQGTQVTGSS', 'low polyreactivity'),
  ('QVQLVESGGGLVQAGGSLRLSCAASGSIFSIYAMGWYRQAPGTERELVASINSGDSTYYADSVKGRFTISRDNAKNTVYVQMNSLKPDDTAVYNCAATLVTVPLYRFDYWGQGTQVTVSS', 'low polyreactivity');

----------
- EXPERIMENT_SUMMARY: yeast display, Sf9 membrane polyspecificity reagent, FACS + sequencing; frameworks hold sequencing errors
PARAMETER: polyreactivity (PSR sort gate)

Record excerpt, results attached:
INSERT INTO measurements (seq_text, result) VALUES
  ('QVQLVESGGGLVQAGGSLRLSCAASGRIFGVNAMGWYRQAPGKERELVAHIRSSGASTYYADSVKGRFTISRDNAKNTVYLQMNSLKPEDTAVYYCARDYFVDGPGYDYWGQGTQVTVSS', 'low polyreactivity'),
  ('QVQLVESGGGLVQAGGSLRLSCAASVSTFDGYAMGWYRQAPGKERELVAAISSNGGSTYYADSVKGRFTISRDNAKNTVYLQMNSLKPEDTAVYYCNTYRSTVYSWTHLLYDYWGQGTQVTVSS', 'low polyreactivity'),
  ('QVQLVDSGGGLVQAGGSLRLSCAASGSTFYAYVMGWYRQAPGKERELVAGITWSGGSTYYADSVKGRFTISRDNAKNTVYLQMNSLKPEDTAVYYCAADYYNTYGYDYWGQGTQVTVSS', 'low polyreactivity'),
  ('QVQLVESGGGLVQAGGSLRLSCAASGRTFYFYAMGWYRQAPGKERELVADIRGITGSTYYADSVKGRFTISRDNAKNTVYLQMNSLKPEDTAVYYCAADQYLGRAWRGRGYYWGQGTQVTVSS', 'high polyreactivity'),
  ('QVQLVESGGGLVQAGGSLRLSCAASGSTFIFNAMGWYRQAPGKERELVAAISWRVGRTYYADSVKGRFTISRDNAKNTVYLQMNSLKPEDTAVYYCAAPKSSTGHYYSWGQGTQVTVSS', 'low polyreactivity');

For every item below, please supply its polyreactivity (PSR sort gate).
1. QVQLVESGGGLVQAGGSLRLSSAASGRIFPRYGMGWYRQAPGKERELVAAISIGGSTHYADSVKGRFTISRDNAKNTVYLQMNSLKPEDTAVYYCNKDIYVYWLFRLGMGYWGQGTQVTVSS
2. QVQLVESGGGLVQAGGILRLSFAASGFISLDYAMGWYRQAPGKERELVAAISNGGGTNYADSVKGRFTISRDNAKNTVYLQMNSLKPEDTAVYYCNASVSYGYEYDSWGQGTQVTVSS

low polyreactivity
low polyreactivity

----------
- EXPERIMENT_SUMMARY: yeast display, Sf9 membrane polyspecificity reagent, FACS + sequencing; frameworks hold sequencing errors
PARAMETER: polyreactivity (PSR sort gate)

Record excerpt, results attached:
INSERT INTO results (seq_text, parameter, result) VALUES
  ('QVHLVESGGGLVQARGSLRLSCAASGRIFRYYVMGWYRQAPGIERELVAAITSGTSTNYADSVKGRFTISRDNAKNTVYLQMTSLKPEDTAVYYCAVRSPRGGRTRFNSNYWGQGTQVTVSS', 'polyreactivity (PSR sort gate)', 'high polyreactivity'),
  ('QVQLVESGGGLVQAGGSLRLSCAASGRIFDLKAMGWYRQAPGERKGVGCLYFLVWWSTYYADSVKGRFTISRDNAKNTVYLQMNSLKPVDTAVYYCAAVYFYSWEGDGDYWGQGTQVTVSS', 'polyreactivity (PSR sort gate)', 'low polyreactivity'),
  ('QVQLVESGGGLVHAGGSLRLSCAASGSIFGRNAMGWYRQPPGKERELVARISSRGGSTYYADSVKGRFTISRDNAKNTVYLQMNSLKPEDTAVYYCNRDRTSQTNDYWGQGNQVTVSS', 'polyreactivity (PSR sort gate)', 'high polyreactivity'),
  ('QVQLVESGGGLVQAGGSLRLSCAASGSIFTWYTMGWYRQAPGKERELVAGIRTGGSTYYADSVKGRFTISRDNAKNTVYLQMNSLKPEDTSVYYCARQRWYRQYYFTSDYWGLGTQVTVSS', 'polyreactivity (PSR sort gate)', 'high polyreactivity');

For every item below, please supply its polyreactivity (PSR sort gate).
1. QEQLQESGSGLVQAGGSLRLSCAASGNIFQDWVMGWYRQAPGKERELVAAISHGAITYYADSVKGRFTISRDNAKYTVYLQTNSLKREDTAVYYCAAYYIVEYLHGYWGQGTRVTVSS
2. QVQLVESGGGLVQAGGSLRLSCAASGRTLQGYAMGWYRQAPGKERELVAAISRGGGSTYADSVKGRFTISRDNAKNTVYLQMNSLKPEDTAVYYCNKKSYYRYYWGQGTQVTVSS
3. QVQLVESGGGLVEAGGSLRLSCAASARTFIGNAMVWYRQAPGKERELVAGIDSDGSTNYADSVNGRFTSSRDNAKNTVYLQMNSLKPEDTAVYYCAAVQGYRFYEYYYWGQGTQVTVSS
4. QVQLVESGGGLVQAGGSLRLSCAASGSIFRGYTMGWYRQAHGKERELVAAITSGDSTNYADSVKGRFTISRDNAKNTVYLQMKSLKPEDTAVYSCAAVTRFYTKYYWGQGTQVTVSS
5. QVQLVESGGGLVQAGGSLRLSCAASGSNFRYNAIGWYRQAPGKERELVAAISWSGGSTYYADSVKGRFTISRDNAKNTVYLQMNSLKPEDTAVYYCATRYYGIVPGRRYGYWGQGTQVTVSS
6. QVQLVESGGGLVQAGGSLRLSCAASGSTFHPNTMGWYRQAPGKERELGARISSGGSTNYADSVKGRFTISRDNAKNTVYLQMNSLKPEDTAVYYCAARTAFSGARGRGGYWGQGTQVTVSS
7. QVQLVESGGGIVQAGGSLRLSCAASGYIFKYYAMGWYRQAPGKERELVAAITGGVSTNYADSVKGRFTISRDNAKNTVYLQMNSLKPEDTAVYYCAAAITPSDTGSEYDYWGQGTQVTVSS
8. QFQLVESGGGLDQAGGSLRLSCAASGSIFYYNAMGWYRQAPGKERELVAAIDLNDGITYYADSVKGRFTISRDNAKNTVYLQMNSLKPEDTAVYYCAADSYYFLYDSWGQGTQVTVSS

1. low polyreactivity
2. high polyreactivity
3. low polyreactivity
4. high polyreactivity
5. low polyreactivity
6. high polyreactivity
7. low polyreactivity
8. high polyreactivity

For every item below, please supply its polyreactivity (PSR sort gate).
1. QVQLVESGGGLVQAGGSLRLSCAASGLIFFPKAMGGYRPAPGKERELVAYITWSGGGTNYSDSVKGRFTISRDNAKNTVYLQMNSLKPEDTAVYYCNADGTRDYFSLITGSYSVTYDYWGQGTQVTVSS
2. QVQLVESGGGLVQAGGSLRLSCAASGYPFGKYAMGWYRQAPGKERELVASIRSGGSTNYADSVKGRFTISRDNAKNTVYVQMNCLKPEDTAVYYCNTRYRYQYGYDYWWQGTQVTVSS
3. QVQLVESGGGLVQAGGSLRLSCAASGSIFPIYAMGWYRQAPGKERELVAAINRSGGSTYYADSGKGRFTISRDHAKTTVYLQMNSLKPEETAVYDCNADYGYHNQLFRGYYGWSSDHWGQGTQVTVSS

1. high polyreactivity
2. high polyreactivity
3. low polyreactivity
